- systemUnderTest: human melanocortin 3 receptor (MC3R) (human, UniProt P41968 1-323)
- Sequence (P41968 whole entry): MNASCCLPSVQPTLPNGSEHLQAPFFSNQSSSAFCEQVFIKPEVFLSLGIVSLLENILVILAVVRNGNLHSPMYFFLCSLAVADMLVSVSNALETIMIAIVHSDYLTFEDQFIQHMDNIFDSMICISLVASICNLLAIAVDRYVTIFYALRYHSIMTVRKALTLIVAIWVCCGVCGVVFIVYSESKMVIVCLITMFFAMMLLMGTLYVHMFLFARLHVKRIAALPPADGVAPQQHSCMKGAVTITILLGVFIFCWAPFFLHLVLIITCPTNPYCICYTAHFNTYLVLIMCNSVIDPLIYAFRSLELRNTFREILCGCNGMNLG
- protocolDescription: cell-based or functional assay
Positions of bridges follow the written chain, without caps; N, C: chain ends. Non-standard residues stand in square brackets, D forms with d. d2Nal = N[C@H](Cc1ccc2ccccc2c1)C(=O)O; Nle = CCCC[C@H](N)C(=O)O
testReadout: Max Activation % (%)
Form entry: value (%) — number only.

Please report Max Activation % for the following binder: Ac-[Nle]DH[d2Nal]RWPK[dV][dP]-NH2 (lactam 2-8; SMILES CCCC[C@H](NC(C)=O)C(=O)N[C@H]1CC(=O)NCCCC[C@@H](C(=O)N[C@@H](C(=O)N2CCC[C@@H]2C(N)=O)C(C)C)NC(=O)[C@@H]2CCCN2C(=O)[C@H](Cc2c[nH]c3ccccc23)NC(=O)[C@H](CCCNC(=N)N)NC(=O)[C@@H](Cc2ccc3ccccc3c2)NC(=O)[C@H](Cc2c[nH]cn2)NC1=O) [D2]
31.8
